Data origin, for the record: patent US20170088610A1

biological target: T1, human nerve growth factor (human, UniProt P01138 122-241); experiment: BIAcore SPR screen, Fab over immobilised human NGF
T1 construct: Immobilised on CM5 chips for BIAcore, soluble in neuron survival assays; also called human NGF; hNGF
T1 sequence (P01138 122-241 limits assumed): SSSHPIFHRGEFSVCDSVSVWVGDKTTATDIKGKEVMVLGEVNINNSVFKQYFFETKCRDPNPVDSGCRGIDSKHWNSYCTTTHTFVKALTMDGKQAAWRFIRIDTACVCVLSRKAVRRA
measure: koff (s⁻¹)
Answers are plain numbers, in s⁻¹.

Consider the worked cases shown below.
Ask: Supply reported koff belonging to this binder: 8L2-6D5 Fab with CDR H3 mutation S105T (Fab, V domains shown, See note of m8) VH: QVQLQESGPGLVKPSETLSLTCTVSGFSLIGYDINWIRQPPGKGLEWIGMIWGDGTTDYNSALKSRVTISKDTSKNQFSLKLSSVTAADTAVYYCARGGYYYGTTYYFDYWGQGTLVTVS VL: DIQMTQSPSSLSASVGDRVTITCRASQDISNHLNWYQQKPGKAPKLLIYYISRFHSGVPSRFSGSGSGTDFTFTISSLQPEDIATYYCQQSKTLPYTFGQGTKLEIKR
Result: 0.00064

Ask: Supply reported koff belonging to this binder: 8L2-6D5 Fab with CDR H3 mutation F108W (Fab, V domains shown, See note of m8) VH: QVQLQESGPGLVKPSETLSLTCTVSGFSLIGYDINWIRQPPGKGLEWIGMIWGDGTTDYNSALKSRVTISKDTSKNQFSLKLSSVTAADTAVYYCARGGYYYGTSYYWDYWGQGTLVTVS VL: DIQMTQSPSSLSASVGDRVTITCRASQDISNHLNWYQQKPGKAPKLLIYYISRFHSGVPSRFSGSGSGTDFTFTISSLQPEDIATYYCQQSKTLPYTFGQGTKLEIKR
Result: 0.00122

Ask: Supply reported koff belonging to this binder: 8L2-6D5 Fab with CDR L3 mutation S91E (Fab, V domains shown, E91 is the E3 residue, so it is kept; See note of m8) VH: QVQLQESGPGLVKPSETLSLTCTVSGFSLIGYDINWIRQPPGKGLEWIGMIWGDGTTDYNSALKSRVTISKDTSKNQFSLKLSSVTAADTAVYYCARGGYYYGTSYYFDYWGQGTLVTVS VL: DIQMTQSPSSLSASVGDRVTITCRASQDISNHLNWYQQKPGKAPKLLIYYISRFHSGVPSRFSGSGSGTDFTFTISSLQPEDIATYYCQQEKTLPYTFGQGTKLEIKR
Result: 0.00025

Ask: Supply reported koff belonging to this binder: 8L2-6D5 Fab with CDR H3 mutation S105A (Fab, V domains shown, See note of m8) VH: QVQLQESGPGLVKPSETLSLTCTVSGFSLIGYDINWIRQPPGKGLEWIGMIWGDGTTDYNSALKSRVTISKDTSKNQFSLKLSSVTAADTAVYYCARGGYYYGTAYYFDYWGQGTLVTVS VL: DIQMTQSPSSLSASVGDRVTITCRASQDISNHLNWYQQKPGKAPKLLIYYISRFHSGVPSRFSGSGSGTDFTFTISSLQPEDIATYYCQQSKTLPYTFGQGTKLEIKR
Result: 0.00051

Shift focus to the following entry.
Ask: Supply reported koff belonging to this binder: 8L2-6D5 Fab with CDR H3 mutation Y101W (Fab, V domains shown, W101 is the E3 residue, so it is kept; See note of m8) VH: QVQLQESGPGLVKPSETLSLTCTVSGFSLIGYDINWIRQPPGKGLEWIGMIWGDGTTDYNSALKSRVTISKDTSKNQFSLKLSSVTAADTAVYYCARGGYWYGTSYYFDYWGQGTLVTVS VL: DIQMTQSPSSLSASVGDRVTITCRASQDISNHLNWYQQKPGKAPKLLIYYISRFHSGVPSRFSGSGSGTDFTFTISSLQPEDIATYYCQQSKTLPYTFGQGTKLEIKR
Result: 0.00056
